growth reference
# Tested on: MOLT-4 leukemia
# procedure text: NCI-60 one-dose screen, 48 h (100 = growth as untreated, 0 = no growth, -100 = all killed)
# applied conditions: 10 µM unless noted
# Protocol: Growth inhibition of the MOLT-4 human tumor cell line is measured as a screen for anti-cancer activity. Cells are grown in 96 well plates and exposed to the test compound for 48 hours. Compounds are tested at a single concentration, which is 10^-5 M for most compounds. The reported endpoint is percent growth (GI% or GIPRCNT), where numbers from 0 - 100% represent growth inhibition, and numbers from -100% - 0 represent cell death. For example, a value of 40 represents 60% growth inhibition. […]
About 83,000 compounds went through this panel and 20% of them were active in at least one assay; those are over-represented in the sample as a whole.
Please state the figure in %; there is no need to write the unit.

Example entries begin here.
1. O=C1c2[nH]cc(CN[C@@H]3CCCN3)c2C(=O)c2c1c(O)c1ccccc1c2O : -84.7
2. COc1ccc(/C=N/OCC(O)CNCc2ccccc2)cc1OC1CCCC1 (stereo not given) : 101
3. c1ccc2cc(Cn3c(-c4ccc5ccccc5c4)[n+](Cc4ccc5ccccc5c4)c4ccccc43)ccc2c1 : -35.4
4. NC1=NC(c2ccccc2OS(=O)(=O)c2ccc(Br)cc2)n2c(nc3ccccc32)N1 (stereo not given) : 79.3

API: the following record is the query input.
Query: For O=C1NC(=O)C(CSc2ccccc2)(c2ccccc2)N1 (stereo not given) , what is its reported growth?
Result: 97.8

* * *

# Test system: EKVX NSCLC
# procedure text: NCI-60 one-dose screen, 48 h
# applied conditions: 10 µM unless noted
This is part of a sample that, as a whole, favours compounds with a hit. Of some 83,000 tested, about 20% had one in any assay. The source made the active and inactive calls. Rule for the calls: active = growth percent below 10; inactive = the rest.
Log the outcome using a class from t for active, f for inactive

Known results for molecules:
1) CCN1CCN(c2ccc(Nc3ncc4ccc5ncn(C(C)C)c5c4n3)nc2)CC1 : t
2) COc1ccc(NS(=O)(=O)c2ccc(-c3cnc(C4CC4)o3)cc2)cc1 : f
3) O=C1c2cc(S(=O)(=O)O)ccc2C(=O)c2c1cccc2[N+](=O)[O-] : f
4) O=C(CC(O)c1ccccc1)Nc1ccccn1 (configuration not stated) : f
5) COc1cc(/C=C/C(=O)CC(=O)/C=C/c2cc(Br)c(OC)c(OC)c2)cc(Br)c1OC : f

Query: What did this assay record as the result for `O=[N+]([O-])c1cc2c(cc1Br)-c1ccccc1C2` ?
Result: f

Query: Now try O=C1OCC2=C1C(c1ccc3c(c1)OCO3)CC(=O)N2c1cccc(Cl)c1 (configuration not stated) .
Result: f

Query: Now try Cc1ccc(S(=O)(=O)N2CCc3ccc(O)c4c3C2Cc2ccc3c(c2-4)OCO3)cc1 (configuration not stated) .
Result: f

Query: Now try `O=c1oc2ccccc2cc1-c1csc(N=Nc2c(O)[nH]c3ccc(Cl)cc23)n1` .
Result: f

Query: Now try COc1cc(/C=N/NC(=O)c2cnn3c2NC(c2ccccc2)C3)ccc1OC1CCCC1 (configuration not stated) .
Result: f

Query: Now try C=C[C@H]1C[C@@H]2C[C@@H]3[C@H]4C/C=C\C(=O)NCCCC5NC(=O)C(=C(O)/C=C/[C@@H]4CC(=O)[C@H]3[C@@H]2[C@H]1C)C5=O (some centres not stated) .
Result: f

Query: Now try `Cn1cc(C(=O)NCCC(=N)N)cc1NC(=O)CN=C(N)N` .
Result: f
